Data provenance: the Deep4Chem optical property database

Assay: photoluminescence quantum yield (fraction); solvent given as SMILES
Conditions: in CCO
property.name: photoluminescence quantum yield

[
  {
    "smiles": "N#CC1=c2cc3c4c(c2Oc2c1cc1c5c2CCCN5CCC1)CCC[N+]=4CCC3",
    "photoluminescence quantum yield": 0.25
  }
]

QUERY: Fill blank: measured photoluminescence quantum yield of the compound CCOc1ccc2c(-c3nc(-c4ccccc4)no3)cc(=O)oc2c1 is ____.
RESULT: 0.6

QUERY: Can you share its photoluminescence quantum yield? I mean this compound: CCN(CC)/C(C)=N\c1ccc2c3c(cccc13)C(=O)c1ccccc1-2
RESULT: 0.14

QUERY: Entry CC(=O)Nc1ccc(/C=C2\OC(=O)c3cc(N)ccc32)cc1 : reported photoluminescence quantum yield = ?
RESULT: 0.028

QUERY: Please give the measured photoluminescence quantum yield for this compound: CCN(CC)c1ccc2c(c1)oc(=O)c1c(-c3ccccc3C(=O)O)c3ccc(=[N+](CC)CC)cc-3oc12
RESULT: 0.21

QUERY: Reported photoluminescence quantum yield for Cn1cc(-c2nc3ccccc3nc2/C=C/N2CCCC2)c2ccccc21 : what is it?
RESULT: 0.048

QUERY: Fill in: photoluminescence quantum yield of O=Cc1cc(C=O)c2ccc3c(N4CCCCC4)cc(N4CCCCC4)c4ccc1c2c43 is ___
RESULT: 0.87

QUERY: Which photoluminescence quantum yield is listed for O=Cc1c(O)c(-c2nc3ccccc3s2)cc2ccccc12 ?
RESULT: 0.07

QUERY: If you can, please state the reported photoluminescence quantum yield value of Fc1ccc(-c2cc3ccc4cc(-c5ccc(F)cc5)cc5ccc(c2)c3c45)cc1 .
RESULT: 0.05

QUERY: Which photoluminescence quantum yield value belongs to Nc1ccc2c(c1)C(=O)O/C2=C\c1ccc(Cl)cc1 ?
RESULT: 0.17

QUERY: Given Nc1cccnc1 , state its recorded photoluminescence quantum yield.
RESULT: 0.14

QUERY: Given the compound Cc1ccc(C(=O)OCc2ccc3c4cccc5cccc(c6cccc2c63)c54)cc1 , what is its reported photoluminescence quantum yield?
RESULT: 0.93

----------
Assay: photoluminescence quantum yield (fraction); solvent given as SMILES
Conditions: in CCOCC
property.name: photoluminescence quantum yield
# answer = number (no unit)

Some solved entries appear below for comparison.
[
  {
    "smiles": "COc1ccc(/C=C/c2ccccc2)cc1OC",
    "property.name": "photoluminescence quantum yield",
    "numeric.value": 0.051
  },
  {
    "smiles": "CCCCN1c2ccccc2Sc2cc(/C=C/c3nc4nc5ccccc5nc4s3)ccc21",
    "property.name": "photoluminescence quantum yield",
    "numeric.value": 0.05
  },
  {
    "smiles": "CC(C)[Si]1(C(C)C)c2cc(N(C)C)ccc2-c2ccc(C(F)(F)F)cc21",
    "property.name": "photoluminescence quantum yield",
    "numeric.value": 0.35
  },
  {
    "smiles": "Cn1cccc1-c1cc(C#N)ccc1C#N",
    "property.name": "photoluminescence quantum yield",
    "numeric.value": 0.206
  },
  {
    "smiles": "CN(C)c1ccc(/C=C/C=C/c2ccc(C#N)cc2)cc1",
    "property.name": "photoluminescence quantum yield",
    "numeric.value": 0.085
  },
  {
    "smiles": "CN(C)c1ccc(C2=Cc3c4ccccc4cc[n+]3[B-](F)(F)O2)cc1",
    "property.name": "photoluminescence quantum yield",
    "numeric.value": 0.848
  }
]

QUERY: So what's the measured photoluminescence quantum yield for this one? COc1nc(Nc2ccc3c4c(cccc24)C(=O)c2ccccc2-3)nc(OC)n1
RESULT: 0.39

QUERY: # photoluminescence quantum yield lookup, item CCC1=C(C)C2=C(c3c(C)cc(C)nc3-c3cccs3)c3c(C)c(CC)c(C)n3[B-](F)(F)[N+]2=C1C
RESULT: 0.5

QUERY: Sample CN(C)c1ccc(C#Cc2ccc(C=O)cc2)cc1 — what was its photoluminescence quantum yield?
RESULT: 0.201

QUERY: What value of measured photoluminescence quantum yield is listed for CC(=O)c1nc(-c2ccc(N(c3ccccc3)c3ccccc3)cc2)oc1C ?
RESULT: 0.886

QUERY: Could you share which photoluminescence quantum yield value was measured for COc1nc(Cl)nc(Nc2ccc3c4c(cccc24)C(=O)c2ccccc2-3)n1 ?
RESULT: 0.12
